Values compiled from the RNAGym collection of RNA variant scans (doi:10.1126/science.aae0568).

B1: tRNA (parent)
chain: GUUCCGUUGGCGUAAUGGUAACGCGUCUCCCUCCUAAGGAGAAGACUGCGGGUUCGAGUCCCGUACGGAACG

Variants of: B1
experimental-protocol: yeast fitness relative to wild type (ratio to wild type); higher = fitter; tRNA-Arg(CCU), competitive growth, 37 C, YPD
Variants at the floor of the assay were thinned out.
This listing pairs variants with measured yeast fitness.

variant-identifier: C27A U28C C29G A70G
yeast fitness: ≤ 0.5
--
variant-identifier: G9C A14U A42G
yeast fitness: ≤ 0.5
--
variant-identifier: U2A A20U U35C
yeast fitness: ≤ 0.5
--
variant-identifier: A14U U59C A70C
yeast fitness: ≤ 0.5
--
variant-identifier: C31U G39A A45C
yeast fitness: 0.677
--
variant-identifier: C55G U59C C60U G67U
yeast fitness: 0.548
--
variant-identifier: U19C C27U C29G C34A A42C G58A A65G
yeast fitness: ≤ 0.5
--
variant-identifier: C27U G48C
yeast fitness: 0.958
--
variant-identifier: C27U G63A
yeast fitness: 0.867
--
variant-identifier: U19C G44C G58A A65G
yeast fitness: 0.987
--
variant-identifier: U19C G48C C55U
yeast fitness: ≤ 0.5
--
variant-identifier: C5A G12A U35C G44A G48C C55G A69U
yeast fitness: ≤ 0.5
--
variant-identifier: A36G G38C G63A
yeast fitness: ≤ 0.5
--
variant-identifier: A14G C22G C30G G68A
yeast fitness: ≤ 0.5
--
variant-identifier: A21G A42G
yeast fitness: 0.714
--
variant-identifier: U2G C33U G58C A70U
yeast fitness: 0.581
--
variant-identifier: C24G C49G C55A
yeast fitness: ≤ 0.5
--
variant-identifier: C5G G63A A69C
yeast fitness: 0.614
--
variant-identifier: U54C A70G
yeast fitness: 0.973
--
variant-identifier: G6C G38C C46A
yeast fitness: 0.54
--
variant-identifier: C5A G6C G63A
yeast fitness: ≤ 0.5
--
variant-identifier: C27G C31A A37C
yeast fitness: ≤ 0.5
--
variant-identifier: A21C C30U A45G
yeast fitness: ≤ 0.5
--
variant-identifier: C5G U26C C30U C49U
yeast fitness: ≤ 0.5
--
variant-identifier: U7G G18C C31A
yeast fitness: ≤ 0.5
--
variant-identifier: C11U U13C A43C
yeast fitness: 0.682
--
variant-identifier: G44A C49U C62A G67C
yeast fitness: ≤ 0.5
--
variant-identifier: C61U G68A A70G
yeast fitness: 0.648
--
variant-identifier: U19C A20C C33U U35A C49A A69U
yeast fitness: ≤ 0.5
--
variant-identifier: G12A C61A G67A
yeast fitness: ≤ 0.5
--
variant-identifier: C5G U16A A69U
yeast fitness: ≤ 0.5
--
variant-identifier: G9C A20G
yeast fitness: 0.668
--
variant-identifier: C11G C30G C31G U32A C66U
yeast fitness: 0.551
--
variant-identifier: C4U A37G G41C C55G
yeast fitness: 0.537
--
variant-identifier: U32C C49U G50C
yeast fitness: 0.638
--
variant-identifier: C4A G23A U35C G56A
yeast fitness: ≤ 0.5
--
variant-identifier: U13C A21C C55U A69C
yeast fitness: ≤ 0.5
--
variant-identifier: G12A C24U G25A C30U C46A
yeast fitness: 0.571
--
variant-identifier: U59C C61U
yeast fitness: 0.839
--
variant-identifier: C22G C30A A45G
yeast fitness: ≤ 0.5
--
variant-identifier: A21C C27G U28A C29U C34U C62U G63C
yeast fitness: ≤ 0.5
--
variant-identifier: C29G C46A G68A
yeast fitness: ≤ 0.5
--
variant-identifier: A14C A57U C61U
yeast fitness: ≤ 0.5
--
variant-identifier: G23A C31U
yeast fitness: 0.731
--
variant-identifier: A14U U16G U19A G56A G67A
yeast fitness: ≤ 0.5
